biological target: cdk4/D (Homo sapiens); experiment: Cyclin-Dependent Kinase 4 (cdk4) Assay; type: biochemical; conditions: read-out: cdk4/D IC50
Sequence (P11802 whole entry): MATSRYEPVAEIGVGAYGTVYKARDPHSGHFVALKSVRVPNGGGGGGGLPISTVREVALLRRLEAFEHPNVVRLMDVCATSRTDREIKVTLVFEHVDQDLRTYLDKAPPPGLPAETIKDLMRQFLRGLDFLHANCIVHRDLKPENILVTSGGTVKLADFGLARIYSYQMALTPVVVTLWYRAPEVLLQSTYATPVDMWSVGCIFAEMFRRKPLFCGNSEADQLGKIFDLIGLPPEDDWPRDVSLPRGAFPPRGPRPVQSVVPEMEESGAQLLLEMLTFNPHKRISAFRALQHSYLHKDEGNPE
Sequence (P24385 whole entry, further chain): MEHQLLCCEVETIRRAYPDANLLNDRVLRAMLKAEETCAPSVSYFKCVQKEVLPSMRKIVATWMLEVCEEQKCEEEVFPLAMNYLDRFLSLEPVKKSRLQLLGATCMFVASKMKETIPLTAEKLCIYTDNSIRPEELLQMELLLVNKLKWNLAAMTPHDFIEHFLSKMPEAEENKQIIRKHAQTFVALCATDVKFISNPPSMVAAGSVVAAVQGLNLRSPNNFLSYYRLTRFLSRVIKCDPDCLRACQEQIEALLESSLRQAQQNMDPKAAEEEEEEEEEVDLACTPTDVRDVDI
Listed next: entries and their corresponding pIC50.
The meaning of pIC50 here: minus log10 of the concentration in molar units.

CCn1c(=O)ccc2cnc(Nc3ccc4[nH]nnc4c3)nc21 : 6.09
CC(C)n1c(=O)ccc2cnc(Nc3ccc4cn[nH]c4c3)nc21 : 5.95
O=c1ccc2cnc(Nc3ccccc3)nc2n1CC(F)(F)F : 5.84

# input Entry O=c1ccc2cnc(Nc3ccc4[nH]ccc4c3)nc2n1CC(F)(F)F has what pIC50?
# output 6.04

# input Here is the next compound: CCn1c(=O)ccc2cnc(Nc3ccc(S(N)(=O)=O)cc3)nc21
# output 6.02

# input Here is the next compound: CCCCn1c(=O)ccc2cnc(Nc3cccc(I)c3)nc21
# output 6.14
